Biological target: Cytochrome P450 2C9 (Homo sapiens)
Experiment: Cytochrome panel assay with activity outcomes; further: on the % scale 0 is the no-effect control and ±100 the full control effect
Conditions: recombinant CYP, pro-luciferin dealkylation, luminescence, p450-cyp2c9; series mostly up to 57.1 µM
The whole screen tested about 16,000 compounds, of which about 4,000 (25%) were called active. Another 26% or so got no clear call; they are omitted. Not all results are given here.
Readout kind: activity, negative = inhibition

Answered cases to consult:
CO[C@@H]1COC(=O)[C@@H](C)NC(=O)C/C=C\[C@@H](C)[C@H](NS(=O)(=O)c2ccc(C)cc2)COC(=O)[C@H](C)NC(=O)C/C=C\[C@H]1C | 9.56% [at 11.4 µM] (inactive)
C#CCCCO/N=C1/C[C@@H](O)[C@@H](O)[C@@H]2[C@H]3C(=O)N(c4ccc(F)cc4F)C(=O)[C@@H]3CC[C@@H]12 | 7.37% [at 11.4 µM] (inactive)
C=CC[C@@H]1C=C[C@H](O/N=C(\C)CCN2CCCCc3nc(C)c(C)cc32)[C@H](CO)O1 | 0.735% [at 11.4 µM] (inactive)
O=C(O)CN(CCN(CC(=O)O)CC(=O)O)CC(=O)O.[Mn] | -0.525% [at 11.4 µM] (inactive)

Form entry - test system: Cytochrome P450 2C9 (Homo sapiens); read-out: activity, negative = inhibition; molecule: Cc1cccc(CNc2ccnc(-c3ccoc3)n2)c1 -14.6% [at 2.29 µM] (inactive)

Now try C[C@@H](CSC(=N)N)C(N)=O . -9.17% [at 11.4 µM] (inactive)

Now try Nc1ncnc2c([C@@H]3O[C@@H](CO)[C@H](O)[C@@H]3O)nsc12 . -6.07% [at 11.4 µM] (inactive)

Now try CC(=O)OC[C@H]1O[C@@H](O/N=C2/[C@H]3O[C@@H]3[C@@H](O)[C@H]3[C@H]2CCn2c(=O)n(-c4ccccc4)c(=O)n23)[C@H](OC(C)=O)[C@@H](OC(C)=O)[C@@H]1OC(C)=O . 10.3% [at 11.4 µM] (inactive)

Just for reference, PubChem BioAssay AID1851 is where these values come from.
